# studyTarget: Translocator protein (Rattus norvegicus)
# Sequence (P16257 whole entry, looked up): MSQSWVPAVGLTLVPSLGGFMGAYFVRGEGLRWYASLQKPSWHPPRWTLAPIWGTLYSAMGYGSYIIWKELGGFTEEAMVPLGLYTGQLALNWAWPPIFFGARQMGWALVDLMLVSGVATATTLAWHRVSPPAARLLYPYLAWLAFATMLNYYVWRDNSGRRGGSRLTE
# experimentalProtocol: Displacement of [3H]PK11195 from peripheral benzodiazepine receptor of rat cerebral cortex
# Assay type: tissue-based
observedProperty: Ki (nM)
# output: bare number, implied unit nM

State the recorded Ki for this entry: CCCCN(CCCC)C(=O)Cc1c(-c2ccc(Cl)cc2)nc2c(Cl)cc(Cl)cn12 2.68

State the recorded Ki for this entry: O=C(Cc1c(-c2ccccc2)nc2c(Cl)cc(Cl)cn12)N1CCc2ccccc2C1 23.6

State the recorded Ki for this entry: CCOC(=O)C1CCCN(C(=O)Cc2c(-c3ccc(Cl)cc3)nc3ccc(Cl)cn23)C1 (configuration not stated) 19.6

State the recorded Ki for this entry: O=C(Cc1c(-c2ccc(Cl)cc2)nc2c(Cl)cc(Cl)cn12)Nc1ccccc1 11.7

State the recorded Ki for this entry: O=C(Cc1c(-c2ccc(Cl)cc2)nc2c(Cl)cc(Cl)cn12)NC1CCCCC1 140

State the recorded Ki for this entry: O=C(Cc1c(-c2ccc(Cl)cc2)nc2c(Cl)cc(Cl)cn12)N1CCCCC1 3.05

State the recorded Ki for this entry: CCCCN(C(=O)Cc1c(-c2ccc(Cl)cc2)nc2c(Cl)cc(Cl)cn12)c1ccccc1 7.84
